subject-of-test: KRas wild type (Homo sapiens, UniProt P01116)
test-summary: Ras GTP binding domain inhibition assay (labeled-GTP competition, cell-free)
Set-up: made in house
test-context: without SOS, read-out: KRas wild type: % inh.
quantity: inhibition at 20 µM

Worked cases, inhibition at 20 µM given:
[[record]]
molecule = "CO[C@H]1CC[C@@H](Nc2nc(C(=O)NC(C)C)nc3sccc23)C1 (racemic)"
measurement = "0%"

[[record]]
molecule = "CO[C@H]1CC[C@@H](Nc2nc(-c3nccn3C)nc3sc(-c4ccn(C(C)C)n4)c(C(F)(F)F)c23)C1 (racemic)"
measurement = "1 to 25%"

[[record]]
molecule = "Cc1c(-c2ccn(C(C)C)n2)sc2nc(-c3nccn3C)nc(NCCC3CCC(=O)N3)c12 (racemic)"
measurement = "76 to 100%"

[[record]]
molecule = "COCC1CCN(c2nc(-c3nccn3C)nc3sc(-c4ccn(C(C)C)n4)c(C(F)(F)F)c23)C1 (racemic)"
measurement = "26 to 50%"

[[record]]
molecule = "COCC1CN(c2nc(-c3nccn3C)nc3sc(-c4ccn(C(C)C)n4)c(C)c23)CCO1 (racemic)"
measurement = "76 to 100%"


Q: Item COCCn1cnc(-c2nc(O)c3scc(-c4ccccn4)c3n2)c1 with KRas wild type (Homo sapiens, UniProt P01116) - inhibition at 20 µM?
Result: 76 to 100%

Q: Proceed to Cc1sc2c(O)nc(-c3ccccn3)nc2c1-c1ccccn1
Result: 76 to 100%

Q: Proceed to CO[C@H]1CC[C@@H](Nc2nc(C(N)=O)nc3sccc23)C1 (racemic)
Result: 0%

###

inhibition at 20 µM overview
subject-of-test: KRas wild type (Homo sapiens)
test-summary: Ras GTP binding domain inhibition assay (labeled-GTP competition, cell-free)
Set-up: made in house
test-context: with SOS, read-out: KRas wild type + SOS: % inh.

Worked cases, inhibition at 20 µM given:
[[record]]
compound = "COc1ccc2cnc(-c3nc(O)c4scc(-c5ccccn5)c4n3)n2c1 [Compound 86]"
quantity = "inhibition at 20 µM"
measurement = "26 to 50%"

[[record]]
compound = "COCCn1ccnc1-c1nc(O)c2scc(-c3ccncc3)c2n1 [Compound 94]"
quantity = "inhibition at 20 µM"
measurement = "51 to 75%"

[[record]]
compound = "CO[C@@H]1CC[C@H]1CNc1nc(-c2nccn2C)nc2sc(-c3ccn(C(C)C)n3)c(C)c12 (racemic) [Compound 61]"
quantity = "inhibition at 20 µM"
measurement = "76 to 100%"

[[record]]
compound = "Cn1ccnc1-c1nc(O)c2scc(-c3ncccc3F)c2n1 [Compound 30]"
quantity = "inhibition at 20 µM"
measurement = "76 to 100%"


Let's switch to this compound now.
Q: Which inhibition at 20 µM reading was recorded for the compound Cc1c(-c2ccn(C(C)C)n2)sc2nc(-c3nccn3C)nc(NC[C@@H]3CCC(=O)N3)c12 [Compound 51] ?
Result: 51 to 75%

###

subject-of-test: KRas G12D mutant (Homo sapiens, UniProt P01116, G12D)
Construct: made in house
test-summary: Ras GTP binding domain inhibition assay (labeled-GTP competition, cell-free)
test-context: with SOS, read-out: KRas G12D mutant + SOS: % inh.
quantity: inhibition at 20 µM

Q: Which inhibition at 20 µM reading was recorded for the compound COCCn1ccnc1-c1nc(N[C@@H]2CC[C@H](OC)C2)c2c(-c3ccccc3)c(-c3ccn(C)n3)sc2n1 (racemic) [Compound 6] ?
Result: 76 to 100%

Q: Proceed to CO[C@H]1C[C@@H](Nc2nc(-c3nccn3C)nc3sc(-c4cn(C)cn4)c(-c4ccccc4)c23)C1 [Example 2]
Result: 51 to 75%

Q: Proceed to COCCn1c(-c2nc(O)c3scc(-c4ccccn4)c3n2)nc2ccccc21 [Compound 87]
Result: 26 to 50%

Q: Proceed to Cc1cnc(-c2nc(O)c3scc(-c4ccccn4)c3n2)s1 [Compound 92]
Result: 51 to 75%

Q: Proceed to O=C(Nc1ccccn1)c1nc(O)c2scc(-c3ccccn3)c2n1 [Compound 24]
Result: 0%

###

Test system: Akt phosphorylation in Panc-1 cells
test-summary: Western AKT cell-based phosphorylation assay
Set-up: species or system human
test-context: at 10 μM, values in brackets < > are activation %, not inhibition
quantity: % inh of AKT phosphorylation in PANC-1

Worked cases, % inh of AKT phosphorylation in PANC-1 given:
[[record]]
compound = "COCC1CN(c2nc(-c3nccn3C)nc3sc(-c4ccn(C(C)C)n4)c(C)c23)CCO1 (racemic)"
measurement = "<D>"

[[record]]
compound = "NC(=O)c1nc(O)c2scc(-c3ccccn3)c2n1"
measurement = "0 (0% inhibition)"

[[record]]
compound = "CO[C@H]1CC[C@@H](Nc2nc(C(=O)Nc3ccccn3)nc3sccc23)C1 (racemic)"
measurement = "0 (0% inhibition)"

[[record]]
compound = "CO[C@H]1CC[C@@H](Nc2nc(C(N)=O)nc3sc(-c4ccn(C(C)C)n4)cc23)C1 (racemic)"
measurement = "0 (0% inhibition)"

[[record]]
compound = "Cc1c(-c2ccn(C(C)C)n2)sc2nc(-c3nccn3C)nc(NCc3ncc[nH]3)c12"
measurement = "0 (0% inhibition)"


Q: Which % inh of AKT phosphorylation in PANC-1 reading was recorded for the compound O=C(c1nc(O)c2scc(-c3ccccn3)c2n1)N1CCOCC1 ?
Result: 0 (0% inhibition)

Q: Proceed to CO[C@H]1CC[C@@H](Nc2nc(-c3nccn3C)nc3sccc23)C1 (racemic)
Result: 0 (0% inhibition)

###

subject-of-test: KRas wild type (Homo sapiens)
test-summary: MicroScale Thermophoresis (MST) GTP affinity
test-context: read-out: MST GTP affinity for binding domain
quantity: Kd (nM)
Number in nM, nothing else.

Q: Which Kd reading was recorded for the compound Nc1nc2c(ncn2[C@@H]2O[C@H](COP(=O)(O)OP(=O)(O)OP(=O)(O)O)[C@@H](O)[C@H]2O)c(=O)[nH]1 [GTP] ?
Result: 463

###

subject-of-test: KRas G12C mutant (Homo sapiens, UniProt P01116, G12C)
Construct: made in house
test-summary: Ras GTP binding domain inhibition assay (labeled-GTP competition, cell-free)
test-context: with SOS, read-out: KRas G12C mutant + SOS: % inh.
From the text: This is a competitive binding assay. It involves the immobilization of a protein on solid phase, interaction with a small molecule drug candidate, and then competitive binding with a labeled native GTP or GDP ligand. […] The small GTPases proteins: KRas wild type. KRas Q61H mutant, KRas G12C mutant, KRas G12D mutants, Rac-1, and Rho-A were expressed as His-tagged proteins. In addition, the Guanosine nucleotide Exchange Factor (GEF) Sos protein (residues 556-1049) was expressed as a His-tagged protein. […]
quantity: inhibition at 20 µM

Worked cases, inhibition at 20 µM given:
[[record]]
molecule = "CO[C@@H]1CC[C@H](Nc2nc(-c3nccn3C)nc3sc(-c4ccn(C(C)C)n4)c(-c4ccccc4)c23)C1"
measurement = "76 to 100%"

[[record]]
molecule = "COCC1CCN(c2nc(-c3ccccn3)nc3sc(-c4ccn(C(C)C)n4)c(C)c23)C1 (racemic)"
measurement = "26 to 50%"

[[record]]
molecule = "COCCn1ccnc1-c1nc(N[C@@H]2CC[C@H](OC)C2)c2ccsc2n1 (racemic)"
measurement = "76 to 100%"

[[record]]
molecule = "CO[C@H]1C[C@@H](Nc2nc(-c3nccn3C)nc3sc(-c4ccn(C(C)C)n4)c(C)c23)C[C@H]1OC"
measurement = "76 to 100%"

[[record]]
molecule = "O=C(c1nc(O)c2scc(-c3ccccn3)c2n1)N1CCOCC1"
measurement = "0%"


Q: Which inhibition at 20 µM reading was recorded for the molecule Cc1sc2c(O)nc(-c3ccccn3)nc2c1-c1ccccn1 ?
Result: 76 to 100%

Q: Proceed to COCC1COCCN1c1nc(-c2nccn2C)nc2sc(-c3ccn(C(C)C)n3)c(C)c12 (racemic)
Result: 51 to 75%

Q: Proceed to COCCNC(=O)c1nc(N[C@@H]2CC[C@H](OC)C2)c2ccsc2n1 (racemic)
Result: 0%

Q: Proceed to COc1cccc(Nc2nc(-c3nccn3C)nc3sc(-c4ccn(C(C)C)n4)c(C)c23)n1.Cl [Compound 65, hydrochloride salt]
Result: 76 to 100%

Q: Proceed to COc1cc(Nc2nc(-c3nccn3C)nc3sc(-c4ccn(C(C)C)n4)c(C)c23)ncn1
Result: 26 to 50%

###

inhibition at 20 µM overview
subject-of-test: KRas Q61H mutant (Homo sapiens, UniProt P01116, Q61H)
Construct: made in house
test-summary: Ras GTP binding domain inhibition assay (labeled-GTP competition, cell-free)
test-context: at 20 μM, with SOS; read-out: KRas Q61H mutant + SOS: % inh.

[[record]]
compound = "COC1CCCN(c2nc(-c3nccn3C)nc3sc(-c4ccn(C(C)C)n4)c(C(F)(F)F)c23)C1 (racemic)"
quantity = "inhibition at 20 µM"
measurement = "26 to 50%"


Q: Which inhibition at 20 µM reading was recorded for the compound COc1cc(Nc2nc(-c3nccn3C)nc3sc(-c4ccn(C(C)C)n4)c(C)c23)ccn1 ?
Result: 51 to 75%

Q: Proceed to Cc1c(-c2ccn(C(C)C)n2)sc2nc(-c3nccn3C)nc(NCCc3ncc[nH]3)c12
Result: 26 to 50%

Q: Proceed to CO[C@H]1C[C@@H](Nc2nc(-c3nccn3C)nc3sc(-c4ccn(C(C)C)n4)c(C)c23)C1
Result: 0%

Q: Proceed to COCCn1ccnc1-c1nc(O)c2scc(-c3ccncc3)c2n1
Result: 51 to 75%

Q: Proceed to Cc1c(-c2ccn(C(C)C)n2)sc2nc(-c3nccn3C)nc(NC3CCOC3)c12 (racemic)
Result: 76 to 100%

Q: Proceed to CO[C@@H]1CCCN(c2nc(-c3nccn3C)nc3sc(-c4ccn(C(C)C)n4)c(C)c23)C1
Result: 51 to 75%

Q: Proceed to COc1cccc(Nc2nc(-c3nccn3C)nc3sc(-c4ccn(C(C)C)n4)c(C)c23)n1.Cl [Compound 65, hydrochloride salt]
Result: 51 to 75%

Q: Proceed to COc1ccc2cnc(-c3nc(O)c4scc(-c5ccccn5)c4n3)n2c1
Result: 51 to 75%

Q: Proceed to O=C(c1nc(O)c2scc(-c3ccccn3)c2n1)N1CCCC1
Result: 1 to 25%

Q: Proceed to COc1cccn2c(-c3nc(O)c4scc(-c5ccccn5)c4n3)ncc12
Result: 26 to 50%

Q: Proceed to COCCn1cnc(-c2nc(O)c3scc(-c4ccccn4)c3n2)c1
Result: 51 to 75%

Q: Proceed to Cc1c(-c2ccn(C(C)C)n2)sc2nc(-c3nccn3C)nc(N3CCC(COC(C)C)C3)c12 (racemic)
Result: 51 to 75%
